Numbers sourced from patent US9981940B2.

I'd be grateful if you could share measured logP[a] for these entries.
Experiment: log P by HPLC (OECD Guideline 117), method [a] acidic range
Format: physicochemical
Settings: HPLC, method [a] acidic range

CCCn1c(OC)nn(-c2cc(SCC(F)(F)F)c(C)cc2F)c1=O    3.53

For each of the compounds below, note its logP[a].
1. Cc1cc(F)c(-n2nc(C)n(-c3ccccc3)c2=O)cc1[S+]([O-])CC(F)(F)F (racemic)
2. Cc1cc(C)c(-n2ncn(C(C)(C)C)c2=O)cc1SCC(F)(F)F
3. Cc1ccc(-n2nc(OC3CCOC3)n(C)c2=O)cc1SCC(F)(F)F (centres unmarked)
4. CC(C)(C)COc1nn(-c2cc([S+]([O-])CC(F)(F)F)c(Cl)cc2F)c(=O)n1C1CC1 (centres unmarked)

[reply]
1: 2.38; 2: 3.46; 3: 3.27; 4: 4.13
